For each entry below, report its IC50 value.
Test description: Cytotoxicity against human NCI-H460 cells expressing CTR5 gene assessed as reduction in cell viability measured after 72 hrs by CellTiter-Blue cell viability assay
Assay type: functional, cell-based
Applied conditions: Homo sapiens, NCI-H460, 72 h; read-out: IC50
All answers are understood in µM, so give the number only.

In plain terms, C=C(C)[C@@H]1CC[C@]2(C)[C@H](C[C@@H](F)C34OC(=O)[C@@]5(CC[C@@H](C)[C@H](C)[C@@H]35)CC[C@]42C)[C@@]1(C)CCC(=O)NCC has a documented IC50 of 5.3

In plain terms, C=C(C)[C@@H]1CC[C@]2(C)[C@H](C[C@@H](F)C34OC(=O)[C@@]5(CC[C@@H](C)[C@H](C)[C@@H]35)CC[C@]42C)[C@@]1(C)CCC(N)=O has a documented IC50 of 23

In plain terms, C[C@H]1[C@H](C)CC[C@@]23CC[C@]4(C)C(OC2=O)([C@H](F)C[C@@H]2[C@@]5(C)CC[C@H](O)C(C)(C)[C@@H]5CC[C@]24C)[C@H]13 has a documented IC50 of 19.3

In plain terms, C=C(C)[C@@H]1CC[C@]2(C)[C@H](C[C@@H](F)C34OC(=O)[C@@]5(CC[C@@H](C)[C@H](C)[C@@H]35)CC[C@]42C)[C@@]1(C)CCC(=O)NCCC has a documented IC50 of 2.6
